Assay: differential killing of epithelial or mesenchymal cells, primary screen, imaging, PC-3E GFP, TEM4-18 mCherry, co-culture (AID 1345086);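 further: cells exposed to compound for 72 h before imaging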
Details: imaging cell counts, measured here: epithelial PC-3E GFP cell survival, at 1 µM
Values of normalised cell number strictly less than 1 map to true (1), and values of at least 1 map to false (0).

| molecule | assigned-class |
| --- | --- |
| O=C(Cc1ccccc1)NCC1O[C@@H](OC2C(NC(=O)Cc3ccccc3)C[C@@H](NC(=O)Cc3ccccc3)[C@H](OC3OC(COS(=O)(=O)O)[C@@H](OS(=O)(=O)O)[C@H](NC(=O)Cc4ccccc4)[C@H]3OS(=O)(=O)O)[C@H]2OS(=O)(=O)O)[C@H](OS(=O)(=O)O)[C@@H](OS(=O)(=O)O)C1OS(=O)(=O)O (stereo not given in full) | true (1) |
| CNCC[C@H](Oc1cccc2ccccc12)c1cccs1 | false (0) |
| C[C@@H]1C(=O)NC(Cc2ccccc2)C(=O)N2CCCC[C@H]2C(=O)O[C@H]([C@@H](C)CCCC[C@@H](C)O)C[C@H]1O (stereo not given in full) | false (0) |
| C=C1CC[C@H](O)C/C1=C/C=C1\CCCC2(C)C1CCC2C(C)CCCC(C)C (stereo not given in full) | false (0) |
